target: Free fatty acid receptor 1 (Homo sapiens, UniProt O14842); assay: Agonist activity at FFA1 receptor (unknown origin) stably expressed in CHO cells assessed as increase in calcium flux by Fluo4-AM based FLIPR assay
Sequence (O14842 whole entry): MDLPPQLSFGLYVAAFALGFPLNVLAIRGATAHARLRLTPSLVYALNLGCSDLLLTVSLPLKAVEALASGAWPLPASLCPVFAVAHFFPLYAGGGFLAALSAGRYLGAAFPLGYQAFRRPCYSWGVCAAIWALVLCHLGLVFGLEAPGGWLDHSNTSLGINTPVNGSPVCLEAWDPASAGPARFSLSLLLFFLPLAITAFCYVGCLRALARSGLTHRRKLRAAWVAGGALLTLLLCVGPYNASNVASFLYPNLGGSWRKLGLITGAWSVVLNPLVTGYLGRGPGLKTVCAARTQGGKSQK
result-type: EC50
Field: value (include unit after the number)

O=C(O)COc1ccc(NCc2cccc(-c3ccccc3)c2)cc1F ... 58.5 nM
CCCOc1ccc(-c2cccc(CNc3ccc(OCC(=O)O)c(F)c3)c2)c(C)c1 ... 41.3 nM
O=C(O)COc1ccc(NCc2ccc(Cl)c(-c3ccccc3)c2)cc1F ... 51.7 nM

Now look at this entry.
State the measured EC50 (Free fatty acid receptor 1 (Homo sapiens, UniProt O14842)) of `Cc1cc(OCCCS(C)(=O)=O)ccc1-c1cccc(CNc2ccc(OCC(=O)O)c(F)c2)c1` 45.6 nM
